These entries and their values trace back to patent US20050064507A1.

target: PKC-theta (Homo sapiens); construct: His-tag; made in house; host or cells: baculovirus-infected Sf9 cells; assay: In vitro kinase assay: peptide phosphorylation by PKC-theta; format: biochemical; conditions: peptide concentration 10 uM
Sequence (Q04759 whole entry): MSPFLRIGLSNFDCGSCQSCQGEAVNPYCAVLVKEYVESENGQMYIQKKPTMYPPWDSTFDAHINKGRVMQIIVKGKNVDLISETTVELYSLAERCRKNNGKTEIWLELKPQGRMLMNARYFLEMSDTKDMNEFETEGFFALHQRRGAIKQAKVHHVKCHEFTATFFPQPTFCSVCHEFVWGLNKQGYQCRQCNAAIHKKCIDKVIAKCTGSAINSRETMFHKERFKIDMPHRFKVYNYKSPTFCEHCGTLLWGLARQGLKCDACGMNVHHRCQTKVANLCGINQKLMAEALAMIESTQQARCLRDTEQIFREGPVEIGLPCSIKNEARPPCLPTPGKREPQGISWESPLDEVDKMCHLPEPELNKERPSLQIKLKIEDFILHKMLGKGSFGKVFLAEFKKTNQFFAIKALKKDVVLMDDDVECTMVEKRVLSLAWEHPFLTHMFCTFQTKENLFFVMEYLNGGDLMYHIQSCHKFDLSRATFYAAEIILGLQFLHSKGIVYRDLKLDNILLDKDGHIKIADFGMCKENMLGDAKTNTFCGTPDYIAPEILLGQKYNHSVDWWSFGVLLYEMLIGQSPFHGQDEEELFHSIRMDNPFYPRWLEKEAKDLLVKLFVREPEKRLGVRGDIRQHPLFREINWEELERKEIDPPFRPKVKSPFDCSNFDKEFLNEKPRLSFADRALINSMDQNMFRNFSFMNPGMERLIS
Documented phosphorylation by PKC theta across a set of substances
# print the numeric value only

Tell me its phosphorylation by PKC theta given 123 (KKRFSFKKSFKLSGFSFKKN) [compound 123] as the entry. 32

Tell me its phosphorylation by PKC theta given 160 (PFEVVWYKDKRQLRSSKKYK) [compound 160] as the entry. 25

Tell me its phosphorylation by PKC theta given 128 (QQVDRERPHVRRRRGTFKRS) [compound 128] as the entry. 59
